These measurements were taken from paper PMC9100253.

MEASURED_TARGET: UniProt:A0A5R8T042
TEST_READOUT: pKi
A value of pKi is the negative decimal logarithm of a concentration given in moles per litre.

What value of measured pKi is listed for O=C(O)[C@H]1/C(=C/CO)O[C@@H]2CC(=O)N21 [clavulanic acid] ?
7.66

---

Measured pKd values are reported for all entries that follow.
MEASURED_TARGET: CTX-M-15 (Escherichia coli, UniProt A0A5R8T042, S73A)
ASSAY_PROTOCOL: biochemical
Reminder that pKd means the negative base-10 logarithm of the concentration expressed in mol/L.

compound="CC1(C)S[C@@H]2[C@H](NC(=O)[C@H](N)c3ccccc3)C(=O)N2[C@H]1C(=O)O [ampicillin]" measured_target="CTX-M-15 (Escherichia coli, UniProt A0A5R8T042, S73A)" recorded_number=4.54
compound="CO/N=C(\\C(=O)N[C@@H]1C(=O)N2C(C(=O)O)=C(CS)CS[C@H]12)c1csc(N)n1 [desfuroylceftiofur]" measured_target="CTX-M-15 (Escherichia coli, UniProt A0A5R8T042, S73A)" recorded_number=4.97
compound="O=C(Cc1cccs1)N[C@@H]1C(=O)N2C(C(=O)O)=C(/C=C/c3ccc([N+](=O)[O-])cc3[N+](=O)[O-])CS[C@H]12 [nitrocefin]" measured_target="CTX-M-15 (Escherichia coli, UniProt A0A5R8T042, S73A)" recorded_number=4.15
compound="O=C(O)[C@H]1/C(=C/CO)O[C@@H]2CC(=O)N21 [clavulanic acid]" measured_target="CTX-M-15 (Escherichia coli, UniProt A0A5R8T042, S73A)" recorded_number=3.54

Please turn your attention to the following entry.
Fill blank: measured pKd of the compound CO/N=C(\C(=O)N[C@@H]1C(=O)N2C(C(=O)O)=C(CSC(=O)c3ccco3)CS[C@H]12)c1csc(N)n1 [ceftiofur] is ____.
4.42
